For each of the variants below, state its polymerase ribozyme fitness (log ratio).
B1: TPR 5TU (parent)
chain: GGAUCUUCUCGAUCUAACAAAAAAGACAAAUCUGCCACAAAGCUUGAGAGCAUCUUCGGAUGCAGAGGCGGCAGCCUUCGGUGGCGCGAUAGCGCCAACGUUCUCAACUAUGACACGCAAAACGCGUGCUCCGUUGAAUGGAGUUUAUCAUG

- Variants of: B1
- protocol-text: polymerase ribozyme fitness, log enrichment relative to wild type (log ratio); higher = more active; in vitro selection for triplet polymerase activity
Fewer inactive variants are shown than the library holds.

[in] Field request: polymerase ribozyme fitness (log ratio) | item: A17U G42U C99A C105U A120U
[out] ≤ -4.2

[in] Consider next the variant A29G A60G G92C C116G A121G in the same way.
[out] ≤ -4.2

[in] For C14A A40C G92C G143A then?
[out] ≤ -4.2

[in] Same again, this time with C27A G50C G80A C95U
[out] ≤ -4.2

[in] # iterate: C38G C54A G74U A106U G140U
[out] ≤ -4.2

[in] Please do the same for A22G C51U U78G C95U A107G U146C as well.
[out] ≤ -4.2
